// data source = ChEMBL document CHEMBL2439989

# Test Target: Sigma non-opioid intracellular receptor 1 (Homo sapiens)
# Sequence (Q99720 whole entry): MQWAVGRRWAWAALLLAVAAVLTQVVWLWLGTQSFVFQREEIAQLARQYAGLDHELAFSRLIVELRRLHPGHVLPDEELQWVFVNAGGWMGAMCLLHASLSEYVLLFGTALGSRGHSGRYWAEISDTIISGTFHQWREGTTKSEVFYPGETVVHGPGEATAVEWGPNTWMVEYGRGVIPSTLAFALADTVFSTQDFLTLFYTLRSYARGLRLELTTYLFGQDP
# Test Details: Binding affinity to sigma 1 receptor (unknown origin) by radioligand binding assay
# Design: concentration or dose not given beside the values
# Measurement Context: concentration not given here
Recorded Metric: inhibition (%)

Recorded inhibition of COc1ccc(-c2ccccc2N2CCN(CCOCCC(=O)NCc3ccncc3)CC2)cc1 , please.
33

And COc1ccc(-c2ccccc2N2CCN(CCCCCC(=O)NCc3ccncc3)CC2)cc1 ?
30

And N#Cc1ccc(CNC(=O)CCCCCN2CCN(c3ccccc3-c3ccccc3)CC2)cc1 ?
48

And COc1ccc(-c2ccccc2N2CCN(CCOCCC(=O)NCc3ccccn3)CC2)cc1 ?
27

And COc1ccc(-c2ccccc2N2CCN(CCOCCC(=O)NCc3cccnc3)CC2)cc1 ?
36

---

# Test Details: Metabolic stability in rat liver S9 fractions at 10 uM after 30 mins by RP-HPLC analysis
# Assay type: ADME, subcellular, Liver S9 fraction
# Measurement Context: read-out: Stability
Recorded Metric: remaining at 0.5 h, 10 µM (%)

Use these answered entries as a reference point.
Recorded remaining at 0.5 h, 10 µM of COc1ccc(-c2ccccc2N2CCN(CCCCCC(=O)NCc3ccccn3)CC2)cc1 , please.
69

And COc1ccc(-c2ccccc2N2CCN(CCCCCC(=O)NCc3cccnc3)CC2)cc1 ?
85

And COc1ccc(-c2ccccc2N2CCN(CCOCCC(=O)NCc3ccccn3)CC2)cc1 ?
78

[P] COc1ccc(-c2ccccc2N2CCN(CCOCCC(=O)NCc3ccncc3)CC2)cc1
[Q] N#Cc1ccc(CNC(=O)CCCCCN2CCN(c3ccccc3-c3ccccc3)CC2)cc1
For the two items P and Q , which reports the higher remaining at 0.5 h, 10 µM value? Which one? Tell me its label.
P

---

# Test Details: Elimination half life in CD1 mouse at 10 mg/kg, ip qd by RP-HPLC analysis
# Format: ADME, organism-based
# Parameters: dose 10 mg/kg, route intraperitoneal
# Measurement Context: in vivo, read-out: beta t1/2
Recorded Metric: half-life (min)
Give just the number in min; leave the unit off.

Recorded half-life of COc1ccc(-c2ccccc2N2CCN(CCOCCC(=O)NCc3cccnc3)CC2)cc1 , please.
44

---

# Test Details: Binding affinity to sigma 2 receptor (unknown origin) by radioligand binding assay
# Design: species or system Homo sapiens
pKi: −log10 of the molar value.
Recorded Metric: pKi

Recorded pKi of COc1ccc(-c2ccccc2N2CCN(CCCCCC(=O)NCc3ccccn3)CC2)cc1 , please.
5.46

[P] N#Cc1ccc(CNC(=O)CCCCCN2CCN(c3ccccc3-c3ccccc3)CC2)cc1
[Q] COc1ccc(-c2ccccc2N2CCN(CCCCCC(=O)NCc3ccncc3)CC2)cc1
[R] COc1ccc(-c2ccccc2N2CCN(CCCCCC(=O)NCc3cccnc3)CC2)cc1
Please order the records by their reported pKi, lowest number first. Your task in answering is to list the labels in the requested order.
P, R, Q
(P: 5.38, R: 6.20, Q: 6.45)

---

# Test Details: Half life in mouse brain at 10 to 30 mg/kg, ip
# Assay type: ADME, organism-based
# Set-up: dose 10-30 mg/kg, route intraperitoneal
Recorded Metric: half-life (h)
Give just the number in h; leave the unit off.

Recorded half-life of N#Cc1ccc(CNC(=O)CCCCCN2CCN(c3ccccc3-c3ccccc3)CC2)cc1 , please.
1.15

---

# Test Details: Ratio of AUC from brain to plasma of CD1 mouse at 10 mg/kg, ip qd measured within 120 mins by RP-HPLC analysis
# Assay type: ADME, organism-based
# Design: dose 10 mg/kg, route intraperitoneal
# Measurement Context: read-out: Ratio AUC
Recorded Metric: Kp at 2 h
Note: the reply should be a number with no unit written.

Recorded Kp at 2 h of COc1ccc(-c2ccccc2N2CCN(CCOCCC(=O)NCc3cccnc3)CC2)cc1 , please.
1.3

---

# Test Target: 5-hydroxytryptamine receptor 1A (Homo sapiens)
# Sequence (P08908 whole entry): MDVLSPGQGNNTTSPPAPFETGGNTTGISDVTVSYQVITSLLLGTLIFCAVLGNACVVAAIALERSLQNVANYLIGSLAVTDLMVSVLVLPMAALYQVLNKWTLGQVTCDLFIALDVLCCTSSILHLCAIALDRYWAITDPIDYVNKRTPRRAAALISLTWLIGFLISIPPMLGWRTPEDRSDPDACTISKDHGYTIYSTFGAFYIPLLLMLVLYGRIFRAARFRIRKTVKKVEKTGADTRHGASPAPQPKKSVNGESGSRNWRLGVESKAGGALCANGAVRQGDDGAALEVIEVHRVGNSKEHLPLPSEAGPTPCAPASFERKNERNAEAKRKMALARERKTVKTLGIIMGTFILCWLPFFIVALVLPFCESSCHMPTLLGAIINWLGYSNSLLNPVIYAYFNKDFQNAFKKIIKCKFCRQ
# Test Details: Displacement of [3H]-8-OH-DPAT from human recombinant 5HT1A receptor expressed in HEK293-EBNA cells after 120 mins
# Format: cell-based
Recorded Metric: Ki (nM)

Use these answered entries as a reference point.
Recorded Ki of COc1ccc(-c2ccccc2N2CCN(CCCCCC(=O)NCc3ccncc3)CC2)cc1 , please.
239

And COc1ccc(-c2ccccc2N2CCN(CCOCCC(=O)NCc3ccccn3)CC2)cc1 ?
918

[I] COc1ccc(-c2ccccc2N2CCN(CCOCCC(=O)NCc3ccncc3)CC2)cc1
[II] COc1ccc(-c2ccccc2N2CCN(CCCCCC(=O)NCc3cccnc3)CC2)cc1
[III] COc1ccc(-c2ccccc2N2CCN(CCCCCC(=O)NCc3ccccn3)CC2)cc1
[IV] COc1ccc(-c2ccccc2N2CCN(CCOCCC(=O)NCc3cccnc3)CC2)cc1
Please order the records by their reported Ki, lowest number first. Your task in answering is to list the labels in the requested order.
III, II, I, IV

---

# Test Details: Binding affinity to sigma 2 receptor (unknown origin) by radioligand binding assay
# Design: species or system Homo sapiens
Recorded Metric: Ki

Recorded Ki of COc1ccc(-c2ccccc2N2CCN(CCOCCC(=O)NCc3ccncc3)CC2)cc1 , please.
> 10 µM

And COc1ccc(-c2ccccc2N2CCN(CCOCCC(=O)NCc3ccccn3)CC2)cc1 ?
> 10 µM

Let us move to another entry and its Ki.
Recorded Ki of COc1ccc(-c2ccccc2N2CCN(CCOCCC(=O)NCc3cccnc3)CC2)cc1 , please.
> 10 µM
